Reference source: patent US10973832B2

# ASSAY TARGET: human muscarinic M3 receptor (Homo sapiens, UniProt P20309)
# Construct: expressed in transfected cells
# Sequence (P20309 whole entry): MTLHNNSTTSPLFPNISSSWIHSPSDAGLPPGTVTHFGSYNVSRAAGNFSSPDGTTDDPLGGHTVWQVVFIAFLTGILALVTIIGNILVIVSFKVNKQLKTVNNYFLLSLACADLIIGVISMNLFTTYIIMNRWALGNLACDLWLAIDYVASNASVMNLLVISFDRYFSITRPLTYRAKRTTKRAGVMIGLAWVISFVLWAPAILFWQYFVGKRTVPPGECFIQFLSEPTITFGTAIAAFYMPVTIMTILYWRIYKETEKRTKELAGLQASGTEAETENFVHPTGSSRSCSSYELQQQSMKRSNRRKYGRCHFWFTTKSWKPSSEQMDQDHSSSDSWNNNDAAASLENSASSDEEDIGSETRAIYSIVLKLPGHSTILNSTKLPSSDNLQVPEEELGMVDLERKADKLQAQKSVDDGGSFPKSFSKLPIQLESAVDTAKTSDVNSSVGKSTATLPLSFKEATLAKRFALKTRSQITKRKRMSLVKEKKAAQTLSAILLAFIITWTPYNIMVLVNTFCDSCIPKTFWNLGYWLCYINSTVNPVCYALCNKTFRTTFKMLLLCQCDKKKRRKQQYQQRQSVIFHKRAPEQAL
# TEST: Phospho-ERK1/2 assay, muscarinic M3
# Format: cell-based
# ASSAY CONDITIONS: CHO, read-out: % Emax cf. ACh (M3)
Can you tell me Emax for the items I'm about to list?
One number for each entry, in %.

- MOLECULE: "CCOC(=O)N1CCCC(N2CCC(C(=O)NCC3CC3)CC2)CC1 (stereo not shown)"
  VALUE OBSERVED: 12
- MOLECULE: "[2H]C([2H])([2H])C([2H])(C([2H])([2H])[2H])C([2H])([2H])NC(=O)C1CCN(C2CCCN(C(=O)OCC)CC2)CC1 (stereo not shown)"
  VALUE OBSERVED: 13

Hi team, please reply with Emax for each item in this list.
1. CCOC(=O)N1CCCC(N2CCC(C(=O)NCC(C)(C)C)CC2)CC1 (stereo not shown)
2. CCOC(=O)N1CCCC(N2CCC(F)(C(=O)NC3(C)CCCC3)CC2)CC1 (stereo not shown)

**Result**
23
12

---

# ASSAY TARGET: UniProt:P11229
# TEST: Phospho-ERK1/2 assay, muscarinic M1
# Assay type: cell-based
# ASSAY CONDITIONS: CHO, read-out: % Emax cf. ACh (M1)
Can you tell me Emax for the items I'm about to list?
One number for each entry, in %.

// known answers, use as guide
- COMPOUND: "CCOC(=O)N1CCCC(N2CCC(F)(C(=O)NCC3CCCC3)CC2)CC1 (stereo not drawn)"
  Emax / %: 122
- COMPOUND: "CCOC(=O)N1CCCC(N2CCC(C(=O)NCC(C)CC)CC2)CC1 (stereo not drawn)"
  Emax / %: 93

**Query** Fill blank: measured Emax of the compound CCOC(=O)N1CCCC(N2CCC(C(=O)NCC(C)(C)C)CC2)CC1 (stereo not drawn) is ____.
**Result** 125

---

Can you tell me log10 of EC50 for the items I'm about to list?
# ASSAY TARGET: human muscarinic M1 receptor (Homo sapiens, UniProt P11229)
# Sequence (P11229 1-460): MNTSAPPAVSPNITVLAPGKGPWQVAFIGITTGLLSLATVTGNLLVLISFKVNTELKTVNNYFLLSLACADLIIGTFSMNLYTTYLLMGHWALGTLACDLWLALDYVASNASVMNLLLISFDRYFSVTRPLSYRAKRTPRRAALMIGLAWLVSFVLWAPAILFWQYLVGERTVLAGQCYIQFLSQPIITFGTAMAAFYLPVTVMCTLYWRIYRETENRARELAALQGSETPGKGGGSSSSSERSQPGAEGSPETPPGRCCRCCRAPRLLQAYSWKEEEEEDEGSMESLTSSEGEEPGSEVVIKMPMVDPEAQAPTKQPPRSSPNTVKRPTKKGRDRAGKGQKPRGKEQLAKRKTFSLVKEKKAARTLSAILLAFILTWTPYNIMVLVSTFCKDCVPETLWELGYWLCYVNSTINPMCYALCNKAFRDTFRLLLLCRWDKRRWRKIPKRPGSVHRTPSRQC
# TEST: Phospho-ERK1/2 assay, muscarinic M1
# Assay type: cell-based
# ASSAY CONDITIONS: CHO cells expressing human M1; phospho-ERK1/2 Alphascreen; read-out: pEC50 M1 (converted)
Note the log scale: values are log10 of EC50 expressed in nM.

// known answers, use as guide
- COMPOUND: "CCOC(=O)N1CCC[C@H](N2CCC(C(=O)NCC(C)C)CC2)CC1 [Example 63]"
  log10 of EC50: 1.84
- COMPOUND: "CCOC(=O)N1CCCC(N2CCC(C(=O)NC3(CC)CCC3)CC2)CC1 (stereo not drawn) [Example 74]"
  log10 of EC50: 1.72
- COMPOUND: "CCOC(=O)N1CCCC(N2CCC(F)(C(=O)NC3(C)CCC3)CC2)CC1 (stereo not drawn) [Example 50]"
  log10 of EC50: 1.29
- COMPOUND: "CCOC(=O)N1CCCC(N2CCC(F)(C(=O)NCC(C)(C)C)CC2)CC1 (stereo not drawn) [Example 46]"
  log10 of EC50: 2.02

Hi team, please reply with log10 of EC50 for each item in this list.
1. CCOC(=O)N1CCCC(N2CCC(C)(C(=O)NCC(C)C)CC2)CC1 (stereo not drawn) [Example 56]
2. CCOC(=O)N1CCCC(N2CCC(C(=O)NC(C)(C)C(C)C)CC2)CC1 (stereo not drawn) [Example 31]
3. CCOC(=O)N1CCCC(N2CCC(F)(C(=O)NCC3CC3)CC2)CC1 (stereo not drawn) [Example 52]
4. CCOC(=O)N1CCCC(N2CCC(C#N)(C(=O)NC3(C)CCC3)CC2)CC1 (stereo not drawn) [Example 82]

**Result**
[1.81, 1.50, 2.36, 1.74]

**Query** Fill blank: measured log10 of EC50 of the compound CCOC(=O)N1CCCC(N2CCC(C(=O)NC(C)(C)C)CC2)CC1 (stereo not drawn) [Example 7] is ____.
**Result** 1.91
